# system.name: T1, Aven DiRGG peptide (human, UniProt Q9NQS1)
# T1 chain: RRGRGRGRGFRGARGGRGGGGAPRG
# test.name: fluorescence plate binding (immobilized peptide); K+-folded RNA; joint range (173-200 in author response); RNA folded in 10 mM Tris-acetate pH 7.7, 200 mM K-acetate, 5 mM Mg-acetate (75 C 10 min, 21 C 5 min); peptide assay 1 h at room temperature, washes in this buffer; pull-down 100 nM RNA in cell lysate with 2 mg/ml heparin, 1 h on ice, beads 30 min at 4 C
# reported.conditions: tags: N-terminal biotin; G4
pKd: −log10 of the molar value.
measurement.type: pKd

Inquiry: Data request, read-out pKd, for GCUGCGGUGUGGAAGGAGUGGUCGGGUUGCGCAGCG (structured_RNA) [sc1 G4 (fluorescein)]
Reply text: ~6.73

Source listed as paper PMC4561382.
